Data credit: patent US20220073604A1

target: T1, bacterially produced cynomolgus monkey IL-6 (cynomolgus monkey, UniProt P79341 28-212, limits assumed); assay: off-rate of Fab 111A7 variant on bact-cy IL-6 (binding kinetics, SPR presumed; n = 3)
T1 construct: also called bact-cy IL-6; HIS-cyIL-6
Please provide measured koff for the entries that follow.
# unit: s⁻¹ | format: bare number

Exercise: I'd like to know its koff. The binder in question is Fab 111A7M_A (CMC optimized variant of Fab 111A7, CDR3 methionine to alanine) (Fab, V domains shown, Fab; The VL is that of 111A7; also called M98X: A) VH: EVQLLESGGGLVQPGGSLRLSCAASGFTFSSYAMSWVRQAPGKGPEWVSRISAGGGSTYYGDSVKGRFTISRDNSKNTLYLQMNSLRAEDTAVYYCANRAGWGAGDYWGQGTLVTVSS VL: QTVVTQEPSFSVSPGGTVTLTCGLSSGSVTASNYPGWYQQTPGQAPRALIYSTNDRHSGVPDRFSGSISGNKAALTITGAQAEDEADYYCALDIGDITEFGGGTQLTVL
Key: 0.000131

Exercise: I'd like to know its koff. The binder in question is Fab 111A7 with the CDR3 methionine changed to Y (Fab, V domains shown) VH: EVQLLESGGGLVQPGGSLRLSCAASGFTFSSYAMSWVRQAPGKGPEWVSRISAGGGSTYYGDSVKGRFTISRDNSKNTLYLQMNSLRAEDTAVYYCANRAGWGYGDYWGQGTLVTVSS VL: QTVVTQEPSFSVSPGGTVTLTCGLSSGSVTASNYPGWYQQTPGQAPRALIYSTNDRHSGVPDRFSGSISGNKAALTITGAQAEDEADYYCALDIGDITEFGGGTQLTVL
Key: 0.000158

Exercise: I'd like to know its koff. The binder in question is Fab 111A7 with the CDR3 methionine changed to D (Fab, V domains shown) VH: EVQLLESGGGLVQPGGSLRLSCAASGFTFSSYAMSWVRQAPGKGPEWVSRISAGGGSTYYGDSVKGRFTISRDNSKNTLYLQMNSLRAEDTAVYYCANRAGWGDGDYWGQGTLVTVSS VL: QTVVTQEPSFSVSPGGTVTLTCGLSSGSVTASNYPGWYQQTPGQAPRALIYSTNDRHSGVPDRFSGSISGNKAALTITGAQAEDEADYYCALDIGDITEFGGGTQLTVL
Key: 0.000234

Exercise: I'd like to know its koff. The binder in question is Fab 111A7 with the CDR3 methionine changed to G (Fab, V domains shown) VH: EVQLLESGGGLVQPGGSLRLSCAASGFTFSSYAMSWVRQAPGKGPEWVSRISAGGGSTYYGDSVKGRFTISRDNSKNTLYLQMNSLRAEDTAVYYCANRAGWGGGDYWGQGTLVTVSS VL: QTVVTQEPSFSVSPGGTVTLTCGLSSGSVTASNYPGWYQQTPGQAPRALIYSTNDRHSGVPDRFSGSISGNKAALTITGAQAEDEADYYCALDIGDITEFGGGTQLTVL
Key: 0.000205
